Value source: paper PMC9005681

- EXPERIMENTAL TARGET: cloned human or rodent CNS receptors, channels, and transporters (PDSP panel) (Homo sapiens, UniProt P14416)
- Construct: expressed in transfected cells
- Sequence (P14416 whole entry): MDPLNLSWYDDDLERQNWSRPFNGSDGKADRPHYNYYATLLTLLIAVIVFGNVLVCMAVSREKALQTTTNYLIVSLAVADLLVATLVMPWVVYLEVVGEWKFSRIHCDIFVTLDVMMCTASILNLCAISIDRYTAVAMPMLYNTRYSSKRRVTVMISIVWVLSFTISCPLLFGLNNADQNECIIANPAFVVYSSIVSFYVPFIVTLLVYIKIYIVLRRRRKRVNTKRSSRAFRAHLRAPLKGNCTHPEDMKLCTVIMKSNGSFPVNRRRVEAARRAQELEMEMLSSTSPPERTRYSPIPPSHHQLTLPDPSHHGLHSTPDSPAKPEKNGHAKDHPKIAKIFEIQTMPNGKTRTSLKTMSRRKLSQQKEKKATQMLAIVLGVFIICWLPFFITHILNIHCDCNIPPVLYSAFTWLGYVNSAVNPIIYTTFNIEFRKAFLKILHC
- ASSAY NOTES: PDSP GPCR panel primary binding assays at 10 μM
- MEASUREMENT SETUP: D2; primary assay, replicate 4
MEASUREMENT TYPE: Inhibition 4 (%)
Give a bare numeral; the unit % is implied.

Please look up its Inhibition 4: CCC(=O)N1CCC(NC(=O)Nc2ccc(OC(F)(F)F)cc2)CC1 [UNC10302681A, TPPU] -1.03

Sample O=C(NC1CC1)C(=O)C(Cc1ccccc1)NC(=O)[C@H]1CCC(=O)N1Cc1ccccc1 (stereo partly shown) [UNC10302676A, ABT-957 (Alicapistat)] — what was its Inhibition 4? -27.71

Recorded Inhibition 4 of CC(=O)N1CCC(NC(=O)NC23CC4CC(CC(C4)C2)C3)CC1 [UNC10302683A, AR9281] , please. -3.95

What Inhibition 4 value was documented for this compound, CNc1nc(C)nc(N[C@H]2CCC[C@@H](C(=O)NCc3ccc(C#N)cc3C(F)(F)F)C2)n1 [UNC10302679A, GSK2256294A] ? -16.31
